- assay-method-text: Plasma pharmacokinetics of parenterally administered dutogliptin
- Type: in vivo, human
- test-settings: human, plasma, iv, 30 mg
value-kind: AUC(0-inf) (ng·h/mL)

[
  {
    "item-smiles": "O=C(CN[C@@H]1CCNC1)N1CCC[C@H]1B(O)O",
    "value-kind": "AUC(0-inf)",
    "unit-string": "ng·h/mL",
    "experimental-value": 4090
  }
]

* * *

- assay-method-text: Plasma pharmacokinetics of parenterally administered dutogliptin
- Assay type: in vivo, human
- test-settings: human, plasma, sc, 120 mg
value-kind: Tmax (min)

[
  {
    "item-smiles": "O=C(CN[C@@H]1CCNC1)N1CCC[C@H]1B(O)O",
    "unit-string": "min",
    "experimental-value": 54
  }
]

* * *

- assay-method-text: Plasma pharmacokinetics of parenterally administered dutogliptin
- Type: in vivo, human
- test-settings: human, plasma, sc, 90 mg
value-kind: k el (s⁻¹)

[
  {
    "item-smiles": "O=C(CN[C@@H]1CCNC1)N1CCC[C@H]1B(O)O",
    "experimental-value": "5.56e-05"
  }
]

* * *

- assay-method-text: Plasma pharmacokinetics of parenterally administered dutogliptin
- Type: in vivo, human
- test-settings: human, plasma, sc, 60 mg, T1/2, 60 mg s.c. (n = 10), day 0, mean (SD)

[
  {
    "compound": "O=C(CN[C@@H]1CCNC1)N1CCC[C@H]1B(O)O [dutogliptin]",
    "half-life / h": 3.58
  }
]

* * *

- assay-method-text: Plasma pharmacokinetics of parenterally administered dutogliptin
- Format: in vivo, human
- test-settings: human, plasma, sc, Half‐life, subcutaneous injection, pooled, SD: 0.46
value-kind: half-life (h)

[
  {
    "molecule": "O=C(CN[C@@H]1CCNC1)N1CCC[C@H]1B(O)O [dutogliptin]",
    "unit-string": "h",
    "experimental-value": 3.49
  }
]

* * *

- assay-method-text: Plasma pharmacokinetics of parenterally administered dutogliptin
- Type: in vivo, human
- test-settings: human, plasma, iv, 30 mg
value-kind: AUC (ng·h/mL)

[
  {
    "molecule": "O=C(CN[C@@H]1CCNC1)N1CCC[C@H]1B(O)O [dutogliptin]",
    "experimental-value": 4080
  }
]

* * *

- assay-method-text: Plasma pharmacokinetics of parenterally administered dutogliptin
- Format: in vivo, human
- test-settings: human, plasma, sc, 90 mg

[
  {
    "item-smiles": "O=C(CN[C@@H]1CCNC1)N1CCC[C@H]1B(O)O",
    "Tmax / min": 51
  }
]

* * *

- assay-method-text: Plasma pharmacokinetics of parenterally administered dutogliptin
- Format: in vivo, human
- test-settings: human, plasma, sc, 60 mg

[
  {
    "molecule": "O=C(CN[C@@H]1CCNC1)N1CCC[C@H]1B(O)O [dutogliptin]",
    "Tmax, min": 51
  }
]

* * *

- assay-method-text: Plasma pharmacokinetics of parenterally administered dutogliptin
- Format: in vivo, human
- test-settings: human, plasma, sc, 120 mg, T1/2, 120 mg s.c. (n = 10), day 0, mean (SD)
value-kind: half-life (h)

[
  {
    "item-smiles": "O=C(CN[C@@H]1CCNC1)N1CCC[C@H]1B(O)O",
    "experimental-value": 3.32
  }
]

* * *

- assay-method-text: Plasma pharmacokinetics of parenterally administered dutogliptin
- Format: in vivo, human
- test-settings: human, plasma, sc, 30 mg

[
  {
    "compound": "O=C(CN[C@@H]1CCNC1)N1CCC[C@H]1B(O)O [dutogliptin]",
    "bioavailability (%)": 99
  }
]
